Measured values drawn from patent US20100086555A1 for this set.

- experimental.system: H5 HA A/VN/1194/04 (on pseudotypes) (influenza A virus A/VN/1194/04 (H5N1))
- assay: cell-based or functional assay
quantity.name: Neutralization of HA-pseudotypes (IC90)

Exercise: Using the record for FE53 (antibody, V domains shown) VH: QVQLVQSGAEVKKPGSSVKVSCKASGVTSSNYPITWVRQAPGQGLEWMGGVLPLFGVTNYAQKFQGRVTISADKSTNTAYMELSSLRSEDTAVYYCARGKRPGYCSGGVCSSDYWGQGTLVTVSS VL: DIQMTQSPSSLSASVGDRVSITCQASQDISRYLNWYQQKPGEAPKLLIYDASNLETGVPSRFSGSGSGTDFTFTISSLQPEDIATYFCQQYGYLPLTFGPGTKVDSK , report its Neutralization of HA-pseudotypes (IC90).
Key: 0.008 µg/mL

Exercise: Dear colleague, I am looking for the recorded Neutralization of HA-pseudotypes (IC90) of the following binder: FB139 (antibody, V domains shown) VH: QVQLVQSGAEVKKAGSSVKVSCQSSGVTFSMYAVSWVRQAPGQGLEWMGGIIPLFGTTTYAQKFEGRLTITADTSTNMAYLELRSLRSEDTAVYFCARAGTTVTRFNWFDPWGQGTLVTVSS VL: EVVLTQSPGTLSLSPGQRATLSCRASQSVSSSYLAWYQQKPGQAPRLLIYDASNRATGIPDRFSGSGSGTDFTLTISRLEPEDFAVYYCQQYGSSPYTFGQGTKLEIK
Key: 0.04 µg/mL

Exercise: What Neutralization of HA-pseudotypes (IC90) value was documented for this binder, FC6 (antibody, V domains shown) VH: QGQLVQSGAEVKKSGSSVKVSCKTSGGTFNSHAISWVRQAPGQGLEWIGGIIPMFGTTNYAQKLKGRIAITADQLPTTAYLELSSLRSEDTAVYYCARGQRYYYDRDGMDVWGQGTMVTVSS VL: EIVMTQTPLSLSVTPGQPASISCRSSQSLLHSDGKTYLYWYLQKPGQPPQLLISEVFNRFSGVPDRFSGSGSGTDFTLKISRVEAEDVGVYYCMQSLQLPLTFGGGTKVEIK ?
Key: 0.061 µg/mL

Exercise: Look up Neutralization of HA-pseudotypes (IC90) for this binder: FE43 (antibody, V domains shown) VH: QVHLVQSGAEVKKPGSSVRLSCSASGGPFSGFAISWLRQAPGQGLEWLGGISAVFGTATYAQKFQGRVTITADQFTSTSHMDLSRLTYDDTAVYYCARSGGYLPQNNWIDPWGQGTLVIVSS VL: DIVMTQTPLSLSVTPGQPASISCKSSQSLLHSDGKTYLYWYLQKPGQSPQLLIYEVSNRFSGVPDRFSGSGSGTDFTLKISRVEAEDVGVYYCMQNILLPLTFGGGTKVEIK
Key: 0.061 µg/mL
